The measurements presented in this section are drawn from patent US20190071480A1.

- Test target: T1, extracellular domain of activin receptor type IIB (ActRIIBecd), biotinylated (Homo sapiens (Human), UniProt Q13705 27-117, amino-biotinylated with amine-PEG3-Biotin)
- T1 construct: immobilised on a streptavidin-coated sensor chip; also called biotinylated ActRIIBecd; extracellular domain of ActRIIB
- T1 sequence: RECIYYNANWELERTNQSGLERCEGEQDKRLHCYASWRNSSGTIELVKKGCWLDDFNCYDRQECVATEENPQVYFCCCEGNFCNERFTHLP
- Test protocol: Mean KD column of Table 5; method not restated (BIAcore as Example 5); species also listed in Table 4
The entries below are paired with their reported pKd.
// pKd: -log10(molar conc.)

Reported pKd for SEQ ID NO: 308, cysteine pairs C59-C59^b, C8-C43^a, C9-C41^a, C88-C92^a (designed binder, disulfides C59-C59 (inter), C8-C43 (intra), C9-C41 (intra), C88-C92 (intra), homodimer by intermolecular disulfide) NSKDPKACCVPTELSAPSPLYLDENEKPVLKNYQDMVVHGCGCRGQAKRKGYKRLKSSCKRHPLYVDFKDVGWNDHAVAPPGYHAFYCHGECPFPLADHLNSDNHAIVQTKVNSV : what is it?
8.21

Another binder to look at: SEQ ID NO: 308, cysteine pairs C59-C59^b, C8-C41^a, C9-C43^a, C88-C92^a (designed binder, disulfides C59-C59 (inter), C8-C41 (intra), C9-C43 (intra), C88-C92 (intra), homodimer by intermolecular disulfide) NSKDPKACCVPTELSAPSPLYLDENEKPVLKNYQDMVVHGCGCRGQAKRKGYKRLKSSCKRHPLYVDFKDVGWNDHAVAPPGYHAFYCHGECPFPLADHLNSDNHAIVQTKVNSV
8.22
